The following compounds are listed with their measured pEC50 values.
biological target: ΔF508-CFTR (Homo sapiens, UniProt P13569, DEL508-508); construct: host or cells: CFBE41o-, doxycycline-inducible; test: CFTR cell surface levels using HRP-tagged ΔF508-CFTR expressing CFBE cells, intrinsic corrector capacity; format: cell-based; settings: HRP-tagged ΔF508-CFTR CFBE41o- cells, compounds alone (intrinsic corrector capacity), 20 hours at 33° C.; read-out: EC50
Sequence (P13569 with tags, fused parts or gaps DEL508-508): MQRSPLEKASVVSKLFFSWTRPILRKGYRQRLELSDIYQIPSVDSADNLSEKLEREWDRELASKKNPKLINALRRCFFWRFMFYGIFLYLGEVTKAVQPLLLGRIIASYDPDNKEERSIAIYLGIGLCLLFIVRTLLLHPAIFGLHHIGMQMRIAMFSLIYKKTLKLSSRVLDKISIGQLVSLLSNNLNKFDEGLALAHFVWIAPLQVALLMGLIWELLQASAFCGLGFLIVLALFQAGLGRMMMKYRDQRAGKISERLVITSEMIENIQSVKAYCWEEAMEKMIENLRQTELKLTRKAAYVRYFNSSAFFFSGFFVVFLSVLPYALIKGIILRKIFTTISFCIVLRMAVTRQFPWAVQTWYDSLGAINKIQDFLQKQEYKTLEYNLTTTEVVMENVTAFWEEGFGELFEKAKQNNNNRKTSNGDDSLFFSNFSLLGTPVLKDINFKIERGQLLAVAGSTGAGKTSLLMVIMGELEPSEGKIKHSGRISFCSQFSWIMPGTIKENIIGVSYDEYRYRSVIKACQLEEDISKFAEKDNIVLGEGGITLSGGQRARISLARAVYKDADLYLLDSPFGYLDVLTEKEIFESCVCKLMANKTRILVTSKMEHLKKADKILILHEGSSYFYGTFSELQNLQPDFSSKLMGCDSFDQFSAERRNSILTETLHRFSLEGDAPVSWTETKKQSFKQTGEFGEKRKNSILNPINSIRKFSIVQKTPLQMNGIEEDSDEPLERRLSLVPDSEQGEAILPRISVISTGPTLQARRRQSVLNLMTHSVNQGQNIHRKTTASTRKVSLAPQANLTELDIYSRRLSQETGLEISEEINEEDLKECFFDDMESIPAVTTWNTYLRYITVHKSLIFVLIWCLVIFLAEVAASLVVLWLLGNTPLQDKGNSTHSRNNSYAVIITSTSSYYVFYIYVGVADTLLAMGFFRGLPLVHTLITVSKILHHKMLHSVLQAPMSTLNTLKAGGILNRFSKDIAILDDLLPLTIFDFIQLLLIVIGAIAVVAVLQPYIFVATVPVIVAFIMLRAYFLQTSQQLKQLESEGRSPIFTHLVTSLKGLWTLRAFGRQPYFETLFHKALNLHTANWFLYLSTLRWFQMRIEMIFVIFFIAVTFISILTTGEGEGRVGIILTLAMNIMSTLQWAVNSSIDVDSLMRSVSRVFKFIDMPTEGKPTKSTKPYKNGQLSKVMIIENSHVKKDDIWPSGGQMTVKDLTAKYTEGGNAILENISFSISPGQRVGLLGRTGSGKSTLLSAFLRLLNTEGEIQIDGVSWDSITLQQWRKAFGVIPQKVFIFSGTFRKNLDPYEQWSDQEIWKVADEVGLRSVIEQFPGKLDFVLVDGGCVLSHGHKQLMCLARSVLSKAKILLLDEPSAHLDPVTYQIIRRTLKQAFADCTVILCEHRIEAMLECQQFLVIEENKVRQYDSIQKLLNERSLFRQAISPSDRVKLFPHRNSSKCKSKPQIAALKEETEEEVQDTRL
pEC50: −log10 of the molar value.
REPORTED METRIC: pEC50

Cc1cccc(-n2nc(C(C)C)c3c(N4CCC(CO)CC4)cc(C(=O)O)nc32)c1 : 6.17
N#CC1CCN(c2ccc(-c3cc(C(=O)O)nc4c3c(C3CCC3)nn4-c3cccc(N4CCCC4)c3)cc2)CC1 : 6.38
Cc1c(C(=O)O)nc2c(c(C)nn2-c2ccccc2)c1-c1ccc(N2CCOCC2)cc1 : 5.48
CC(C)c1nn(-c2cccc(OC(F)(F)F)c2)c2nc(C(=O)O)cc(-c3ccc(N4CCOCC4)cc3)c12 : 6.24
Cc1nn(-c2ccccc2)c2nc(C(=O)O)cc(OC[C@@H](F)C3CCN(C)CC3)c12 : 5.30
Cc1nn(-c2ccccc2)c2nc(C(=O)O)cc(-c3ccc(N4CCC4)cc3)c12 : 5.66
O=C(O)c1cc(-c2ccc(N3CCOCC3)cc2)c2c(C3CCC3)nn(-c3cc(F)cc(F)c3)c2n1 : 6.30
Cc1nn(-c2ccccc2)c2nc(C(=O)O)cc(-c3ccc(N4CC[C@H](C#N)C4)cc3)c12 : 5.87
Cc1nn(-c2ccccc2)c2nc(C(=O)O)cc(-c3ccc(N4CCOC(CO)C4)cc3)c12 (stereo not drawn) : 5.48
COC1CCN(c2cc(C(=O)O)nc3c2c(C(C)C)nn3-c2cccc(N(C)C)c2)CC1 : 6.39
Cc1nn(-c2ccccc2)c2nc(C(=O)O)cc(O[C@H]3CCN(C)C3)c12 : 5.12
CC(C)c1nn(-c2cccc(C(F)(F)F)c2)c2nc(C(=O)O)cc(-c3cnc(N(C)C4CCOCC4)nc3)c12 : 5.89
CC(C)c1nn(C2CCCCC2)c2nc(C(=O)O)cc(-c3ccc(N(C)C4CCOC4)nc3)c12 (stereo not drawn) : 6.30
CC(C)(C)OC(=O)N1CC(c2nn(-c3ccccc3)c3nc(C(=O)O)cc(-c4ccc(N5CCOCC5)cc4)c23)C1 : 6.22

====

target: ΔF508-CFTR (Homo sapiens, UniProt P13569, DEL508-508); construct: host or cells: CFBE41o-, doxycycline-inducible; assay: CFTR cell surface levels using HRP-tagged ΔF508-CFTR expressing CFBE cells, intrinsic corrector capacity; assay type: cell-based; settings: HRP-tagged ΔF508-CFTR expressing CFBE cells; intrinsic corrector capacity (no co-corrector); 33° C., 20 hours; read-out: EC50
pEC50: −log10 of the molar value.
The following compounds are listed with their measured pEC50 values.
REPORTED METRIC: pEC50

C[C@H]1C[C@H](c2nn(-c3ccccc3)c3nc(C(=O)O)cc(-c4ccc(N5CCC(C#N)CC5)nc4)c32)C1 [compound 551] : 6.43
O=CN1CCCN(CC2CCN(c3cc(C(=O)O)nc4c3c(C3CCC3)nn4-c3ccccc3)CC2)CC1 [compound 839] : 6.04
COCCOCC1(F)CCN(c2cc(C(=O)O)nc3c2c(C2CCC2)nn3-c2ccccc2)CC1 [compound 459] : 6.19
O=C(O)c1cc(N2CCC(CN3CC(F)C3)CC2)c2c(C3CCC3)nn(-c3ccccc3)c2n1 [compound 827] : 6.59
O=C(O)c1cc(OC[C@@H]2CCCO2)c2c(C3CCC3)nn(-c3ccccc3)c2n1 [compound 480] : 6.06
COCC1CCN(Cc2cc(C(=O)O)nc3c2c(C2CCC2)nn3-c2ccc(F)cc2)CC1 [compound 859] : 5.65
CO[C@H]1CC[C@@H](Oc2cc(C(=O)O)nc3c2c(C2CCC2)nn3-c2ccccc2)CC1 [compound 428] : 6.01

====

biological target: ΔF508-CFTR (Homo sapiens, UniProt P13569, DEL508-508); construct: host or cells: CFBE41o-, doxycycline-inducible; assay: CFTR cell surface levels using HRP-tagged ΔF508-CFTR expressing CFBE cells, intrinsic corrector capacity; type: cell-based; details: HRP-tagged ΔF508-CFTR expressing CFBE cells; intrinsic corrector capacity (no co-corrector); 33° C., 20 hours; read-out: EC50
pEC50: −log10 of the molar value.
The following molecules are listed with their measured pEC50 values.
REPORTED METRIC: pEC50

COC1CCN(c2cc(C(=O)O)nc3c2c(C(C)C)nn3-c2ccnc(N3CCCC3)c2)CC1 : 6.34
O=C(O)c1cc(N2CCN(CC(F)(F)F)CC2)c2c(C3CCC3)nn(-c3ccccc3)c2n1 : 6.13
O=C(O)c1cc(OC[C@@H](F)C2CCOCC2)c2c(C3CCC3)nn(-c3ccccc3)c2n1 : 6.31
CC(c1ccc(-c2cc(C(=O)O)nc3c2c(C2CCC2)nn3C2CCCCC2)cc1)N1CCOCC1 (centres unmarked) : 6.56
CC(C)OC1CN(c2cc(C(=O)O)nc3c2c(C2CCC2)nn3-c2ccccc2)C1 : 6.01
O=C(O)c1cc(OCCCN2CCOCC2)c2c(C3CCC3)nn(-c3ccccc3)c2n1 : 6.08
N#CCCN1CCN(c2cc(C(=O)O)nc3c2c(C2CCC2)nn3-c2ccccc2)CC1 : 5.80

====

The following molecules are listed with their measured pEC50 values.
target: ΔF508-CFTR (Homo sapiens, UniProt P13569, DEL508-508); construct: host or cells: CFBE41o-, doxycycline-inducible; test: CFTR cell surface levels using HRP-tagged ΔF508-CFTR expressing CFBE cells, intrinsic corrector capacity; type: cell-based; conditions: HRP-tagged ΔF508-CFTR CFBE41o- cells, compounds alone (intrinsic corrector capacity), 20 hours at 33° C.; read-out: EC50
pEC50: −log10 of the molar value.
REPORTED METRIC: pEC50

CC(C)c1nn(C2CCCCC2)c2nc(C(=O)O)cc(-c3ccc(N(C)C4CCOCC4)cc3)c12 : 6.21
CC(C)c1nn(C2CCCCC2)c2nc(C(=O)O)cc(-c3cccn3C)c12 : 5.69
CC(C)c1nn(-c2ccnc(Cl)c2)c2nc(C(=O)O)cc(-c3ccc(N4CCOCC4)cc3)c12 : 6.02
Cc1nn(-c2ccccc2)c2nc(C(=O)O)cc(-c3ccc(N4CCCCC4)cc3)c12 : 6.12
COc1cc(F)cc(-n2nc(C)c3c(-c4ccc(N5CCOCC5)cc4)cc(C(=O)O)nc32)c1 : 5.57
Cc1nn(-c2ccccc2)c2nc(C(=O)O)cc(N3CCC(N4CCOCC4)CC3)c12 : 5.60
Cc1nn(-c2ccccc2)c2nc(C(=O)O)cc(-c3ccc(N4CCC(F)(F)CC4)cc3)c12 : 6.04
CC(C)c1nn(C2CCN(CC(F)(F)F)CC2)c2nc(C(=O)O)cc(-c3ccc(N4CCOCC4)cc3)c12 : 5.96

====

biological target: ΔF508-CFTR (Homo sapiens, UniProt P13569, DEL508-508); construct: host or cells: CFBE41o-, doxycycline-inducible; assay: CFTR cell surface levels using HRP-tagged ΔF508-CFTR expressing CFBE cells, in the presence of a co-corrector; type: cell-based; details: HRP-tagged ΔF508-CFTR expressing CFBE cells, in the presence of 3 μM co-corrector
Quick rule for you: % Activation under 200% gets fulfilled, anything else gets not fulfilled.

Cc1nn(-c2ccccc2)c2nc(C(=O)O)cc(N3CCC(F)CC3)c12 : fulfilled
O=C(O)c1cc(N2CCS(=O)(=O)CC2)c2c(C3CCC3)nn(-c3ccccc3)c2n1 : fulfilled
Cc1nn(-c2ccccc2)c2nc(C(=O)O)cc(N3CCC(C(=O)N(C)C)CC3)c12 : not fulfilled
CC(C)c1nn(C2CCCCC2)c2nc(C(=O)O)cc(-c3ccc(N(C)C4CCOCC4)cc3)c12 : not fulfilled
CC(C)c1nn(C2CCN(CC(F)(F)F)CC2)c2nc(C(=O)O)cc(-c3ccc(N4CCOCC4)cc3)c12 : not fulfilled
COCCC1(CCOc2cc(C(=O)O)nc3c2c(C2CCC2)nn3-c2ccccc2)CC1 : not fulfilled
O=C(O)c1cc(N2CCN(CCO)CC2)c2c(C3CCC3)nn(-c3ccccc3)c2n1 : not fulfilled

====

The following molecules are listed with their measured EC50 values.
target: ΔF508-CFTR (Homo sapiens, UniProt P13569, DEL508-508); construct: host or cells: CFBE41o-, doxycycline-inducible; experiment: CFTR cell surface levels using HRP-tagged ΔF508-CFTR expressing CFBE cells, in the presence of a co-corrector; format: cell-based; details: HRP-tagged ΔF508-CFTR expressing CFBE cells, in the presence of 3 μM co-corrector; read-out: EC50
REPORTED METRIC: EC50 (nM)

Cc1nn(-c2ccc(F)cc2F)c2nc(C(=O)O)cc(-c3ccc(N4CCOCC4)nc3)c12 : 1010
N#CC1CCN(c2ccc(-c3cc(C(=O)O)nc4c3c(C3CCC3)nn4-c3ccnc(N4CCCC4)c3)cn2)CC1 : 338
COCCOCC1(F)CCN(c2cc(C(=O)O)nc3c2c(C2CCC2)nn3-c2ccccc2)CC1 : 380
CC(C)c1nn(-c2ccc(F)cc2)c2nc(C(=O)O)cc(OCCC3CCOCC3)c12 : 256
